Biological target: T1, human Claudin 18.2 (CLDN18.2) (human, UniProt P56856-2 1-261)
T1 construct: whole, on cells; recombinantly expressed on CHO, HEK293, NCI-N87, NUGC4 or PANC-1 cells; also called CHO-CLDN18.2
Assay: FACS on CHO-CLDN18.2 cells
measurement_label: EC50
Report field: quantity (unit follows the number).

Consider the worked cases shown below.
• 364D1A7-H2L5 (antibody, V domains shown, humanized IgG; constant regions not specified) VH: EVQLVESGGGLVQPGGSLRLSCAASGFTFSSFGMHWVRQAPGKGLEWVAYISSGSGSIYYADTVKGRFTISRDNPKNSLYLQMNSLRAEDTAVYYCATSYYYGNALEYWGQGTTVTVSS VL: DVVLTQSPDSLAVSLGERATISCKSSQSLFNVGNQKNYLTWYQQKPGQTPTLLIYWASTRKSGVPDRFTGSGSGTDFTLTISSLQAEDVAVYYCQNVYSYPLTFGAGTKVEIK = 3.35 nM
• 364D1A7-H4L1 (antibody, V domains shown, humanized IgG; constant regions not specified; also called 364D1A7-H41L) VH: DVQLVESGGGLVQPGGSLRLSCAASGFTFSSFGMHWVRQAPGKGLEWVAYISSGSGSIYYADTVKGRFTLSRDNPKNTLYLQMNSLRAEDTAVYYCATSYYYGNALEYWGQGTTVTVSS VL: DIVMTQSPDSLAVSLGERATINCKSSQSLFNVGNQKNYLTWYQQKPGQPPKLLIYWASTRKSGVPDRFSGSGSGTDFTLTISSLQAEDVAVYYCQNVYSYPLTFGGGTKVEIK = 4.12 nM
• 364D1A7-H4L3 (antibody, V domains shown, humanized IgG; constant regions not specified) VH: DVQLVESGGGLVQPGGSLRLSCAASGFTFSSFGMHWVRQAPGKGLEWVAYISSGSGSIYYADTVKGRFTLSRDNPKNTLYLQMNSLRAEDTAVYYCATSYYYGNALEYWGQGTTVTVSS VL: DVVLTQSPDSLAVSLGERATINCKSSQSLFNVGNQKNYLTWYQQKPGQTPKLLIYWASTRKSGVPDRFSGSGSGTDFTLTISSLQAEDVAVYYCQNVYSYPLTFGGGTKVEIK = 4.56 nM
• 364D1A7-H1L1 (antibody, V domains shown, humanized IgG; constant regions not specified) VH: EVQLVESGGGLVQPGGSLRLSCAASGFTFSSFGMHWVRQAPGKGLEWVSYISSGSGSIYYADTVKGRFTISRDNAKNSLYLQMNSLRAEDTAVYYCATSYYYGNALEYWGQGTTVTVSS VL: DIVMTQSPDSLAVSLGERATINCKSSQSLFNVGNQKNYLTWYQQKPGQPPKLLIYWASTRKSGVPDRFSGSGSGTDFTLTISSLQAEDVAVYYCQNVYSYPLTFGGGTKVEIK = 3.5 nM
• 364D1A7-H1L4 (antibody, V domains shown, humanized IgG; constant regions not specified) VH: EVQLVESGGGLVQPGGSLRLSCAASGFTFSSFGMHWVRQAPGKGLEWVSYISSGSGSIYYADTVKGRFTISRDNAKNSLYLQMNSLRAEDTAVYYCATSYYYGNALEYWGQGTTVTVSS VL: DVVLTQSPDSLAVSLGERATISCKSSQSLFNVGNQKNYLTWYQQKPGQTPTLLIYWASTRKSGVPDRFSGSGSGTDFTLTISSLQAEDVAVYYCQNVYSYPLTFGGGTKVEIK = 4.03 nM
• 364D1A7-H2L2 (antibody, V domains shown, humanized IgG; constant regions not specified) VH: EVQLVESGGGLVQPGGSLRLSCAASGFTFSSFGMHWVRQAPGKGLEWVAYISSGSGSIYYADTVKGRFTISRDNPKNSLYLQMNSLRAEDTAVYYCATSYYYGNALEYWGQGTTVTVSS VL: DIVLTQSPDSLAVSLGERATINCKSSQSLFNVGNQKNYLTWYQQKPGQTPKLLIYWASTRKSGVPDRFSGSGSGTDFTLTISSLQAEDVAVYYCQNVYSYPLTFGGGTKVEIK = 6.14 nM
• 364D1A7-H4L4 (antibody, V domains shown, humanized IgG; constant regions not specified) VH: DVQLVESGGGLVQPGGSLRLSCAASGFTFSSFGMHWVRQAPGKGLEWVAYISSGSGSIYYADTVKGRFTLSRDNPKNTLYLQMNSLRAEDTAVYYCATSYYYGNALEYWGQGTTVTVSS VL: DVVLTQSPDSLAVSLGERATISCKSSQSLFNVGNQKNYLTWYQQKPGQTPTLLIYWASTRKSGVPDRFSGSGSGTDFTLTISSLQAEDVAVYYCQNVYSYPLTFGGGTKVEIK = 3.85 nM
• hz282-11 (antibody, V domains shown, humanized IgG; constant regions not specified; also called humanized 282A12(T62A) (hz282-11)) VH: QVQLQESGPGLVKPSETLSLTCTVSGFSLTSYNVYWIRQPPGKGLEWIGVIWNTGATRYNSALKSRVTISKDTSKSQVSLKLSSVTAADTAVYYCARDSAMPAIPFAYWGQGTLVTVSS VL: DIQMTQSPSSLSASVGDRVTITCKSSQSLFGSVRQKNYLAWYQQKPGKAPKLLIYLASTRESGVPSRFSGSGSGTDFTLTISSLQPEDFATYYCQQYYDIPWTFGGGTKVEIK = 2.75 nM

Which EC50 reading was recorded for the binder 364D1A7-H3L2 (antibody, V domains shown, humanized IgG; constant regions not specified) VH: EVQLVESGGGLVQPGGSLRLSCAASGFTFSSFGMHWVRQAPGKGLEWVAYISSGSGSIYYADTVKGRFTLSRDNPKNSLYLQMNSLRAEDTAVYYCATSYYYGNALEYWGQGTTVTVSS VL: DIVLTQSPDSLAVSLGERATINCKSSQSLFNVGNQKNYLTWYQQKPGQTPKLLIYWASTRKSGVPDRFSGSGSGTDFTLTISSLQAEDVAVYYCQNVYSYPLTFGGGTKVEIK ?
4.05 nM

Item 364D1A7-H2L1 (antibody, V domains shown, humanized IgG; constant regions not specified) VH: EVQLVESGGGLVQPGGSLRLSCAASGFTFSSFGMHWVRQAPGKGLEWVAYISSGSGSIYYADTVKGRFTISRDNPKNSLYLQMNSLRAEDTAVYYCATSYYYGNALEYWGQGTTVTVSS VL: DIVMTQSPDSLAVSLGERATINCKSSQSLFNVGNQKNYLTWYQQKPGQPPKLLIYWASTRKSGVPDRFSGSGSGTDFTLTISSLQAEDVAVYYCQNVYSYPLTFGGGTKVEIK has what recorded EC50?
3.47 nM

EC50 for 364D1A7-H3L4 (antibody, V domains shown, humanized IgG; constant regions not specified) VH: EVQLVESGGGLVQPGGSLRLSCAASGFTFSSFGMHWVRQAPGKGLEWVAYISSGSGSIYYADTVKGRFTLSRDNPKNSLYLQMNSLRAEDTAVYYCATSYYYGNALEYWGQGTTVTVSS VL: DVVLTQSPDSLAVSLGERATISCKSSQSLFNVGNQKNYLTWYQQKPGQTPTLLIYWASTRKSGVPDRFSGSGSGTDFTLTISSLQAEDVAVYYCQNVYSYPLTFGGGTKVEIK ?
4.78 nM
